Measured bioavailability accompanies every entry in the list below.
- assay: Oral bioavailability in rat at 5 mg/kg
- Format: ADME, organism-based
- settings: in vivo

| compound-structure-string | bioavailability, % |
| --- | --- |
| COc1nc(N[C@@H](C)c2cc3cc(Cl)ccc3[nH]c2=O)ncc1C#N | 81 |
| COc1cc2[nH]c(=O)c([C@H](C)Nc3ncc(C#N)c(OC)n3)cc2cc1Cl | 75 |

====

- assay: Metabolic stability in mouse liver microsomes assessed as compound remaining after 30 mins
- Assay type: ADME, Microsome
- settings: read-out: Stability

| compound-structure-string | remaining at 0.5 h [%] |
| --- | --- |
| CCOc1cc(NCc2cc3cc(Cl)ccc3[nH]c2=O)ccc1C#N | 29 |
| COc1cc(N[C@@H](C)c2cc3cc(Cl)ccc3[nH]c2=O)ncc1C#N | 100 |
| COc1cc(NCc2cc3cc(Cl)cc(OCCN4CCOCC4)c3[nH]c2=O)ccc1C#N | 2.4 |
| COc1cc(NCc2cc3cc(Cl)ccc3n(C)c2=O)ccc1-n1cnnn1 | 22 |
| COc1cc(NCc2cc3cc(C(C)(C)C)ccc3[nH]c2=O)ccc1C#N | 3.9 |

Ref: ChEMBL document CHEMBL4359816
